The measured values listed here are drawn from patent US20080081781A1.

test: in vivo; design: species or system canine (beagle); details: beagle, dog, 700 mg/kg
attribute-measured: concentration at 9 hours (µg/mL)
Supply the numeric figure in µg/mL, leaving out any unit text.

Recorded concentration at 9 hours for `COc1ccc2cc3[n+](cc2c1OC)CCc1cc2c(cc1-3)OCO2` , please?
0.0278

* * *

assay: in vivo; conditions: beagle, dog, iv, 100 mg/kg
attribute-measured: clearance (mL/min)
Supply the numeric figure in mL/min, leaving out any unit text.

Recorded clearance for COc1ccc2cc3[n+](cc2c1OC)CCc1cc2c(cc1-3)OCO2 [berberine] , please?
1010

* * *

test: in vivo; design: species or system canine (beagle); details: beagle, dog, 700 mg/kg
attribute-measured: concentration at 24 hours

Recorded concentration at 24 hours for COc1ccc2cc3[n+](cc2c1OC)CCc1cc2c(cc1-3)OCO2 [berberine] , please?
16 ng/mL
